Recorded measurements of Kd, one per entry
# test system: recombinant human urokinase receptor (truncated, soluble; suPAR) (Homo sapiens, UniProt Q03405)
# Construct: expressed as a truncated, soluble molecule as described previously for mouse L-cells (Masucci et al., J Biol Chem (1991) 266:8655); made in house
# Sequence (Q03405 23-299 limits assumed): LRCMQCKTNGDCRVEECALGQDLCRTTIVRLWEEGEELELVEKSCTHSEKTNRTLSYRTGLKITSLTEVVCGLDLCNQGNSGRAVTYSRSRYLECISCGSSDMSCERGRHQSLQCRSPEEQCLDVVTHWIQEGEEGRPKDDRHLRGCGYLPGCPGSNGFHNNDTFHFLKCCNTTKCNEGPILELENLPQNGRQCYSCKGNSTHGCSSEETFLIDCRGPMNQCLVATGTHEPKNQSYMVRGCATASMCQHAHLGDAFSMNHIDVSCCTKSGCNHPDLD
# test method notes: 125I-ATF competition binding on immobilized soluble recombinant human urokinase receptor
# conditions used: synthesized peptide; corrected to 100 pM ATF, 0.3 μg/mL suPAR conditions, corrections about 3 × from previous assay conditions; read-out: Affinity
Peptide text beside a SMILES is read from it.
# unit: µM | format: bare number

# count of solved cases: 3
CC(C)C[C@H](NC(=O)[C@@H](NC(=O)CNC(=O)[C@@H](NC(=O)[C@H](CCC(N)=O)NC(=O)[C@H](CO)NC(=O)[C@H](CCC(=O)O)NC(=O)[C@H](C)N)[C@@H](C)O)[C@@H](C)O)C(=O)N[C@@H](CC(N)=O)C(=O)N[C@H](C(=O)N[C@@H](CC(C)C)C(=O)N[C@@H](Cc1ccccc1)C(=O)N[C@@H](Cc1c[nH]c2ccccc12)C(=O)N[C@@H](CC(N)=O)C(=O)N[C@H](C(=O)N[C@@H](CC(C)C)C(=O)N[C@@H](CCCNC(=N)N)C(N)=O)[C@@H](C)O)[C@@H](C)O (H-AESQTGTLNTLFWNTLR-NH2) = 7
CC[C@H](C)[C@H](NC(=O)[C@H](CCCNC(=N)N)NC(=O)[C@H](Cc1c[nH]c2ccccc12)NC(=O)[C@H](CC(C)C)NC(=O)[C@H](CO)NC(=O)[C@H](CO)NC(=O)[C@H](CCC(=O)O)NC(=O)[C@H](C)N)C(=O)N[C@@H](Cc1ccccc1)C(=O)N[C@@H](CO)C(=O)N1CCC[C@H]1C(=O)N[C@@H](CO)C(=O)N[C@@H](C)C(=O)N[C@@H](CC(C)C)C(=O)N[C@@H](CCSC)C(=O)N[C@@H](CCSC)C(=O)N[C@@H](CO)C(N)=O (H-AESSLWRIFSPSALMMS-NH2) = 7
CC(C)C[C@H](NC(=O)CNC(=O)[C@@H]1CCCN1C(=O)[C@H](CC(N)=O)NC(=O)[C@H](Cc1ccccc1)NC(=O)[C@H](Cc1ccccc1)NC(=O)[C@H](Cc1ccccc1)NC(=O)[C@H](CO)NC(=O)[C@H](Cc1c[nH]c2ccccc12)NC(=O)[C@H](CC(N)=O)NC(=O)[C@H](CC(C)C)NC(=O)[C@H](CC(C)C)NC(=O)[C@H](C)NC(=O)[C@@H]1CCCN1C(=O)[C@H](CCC(=O)O)NC(=O)[C@H](C)N)C(=O)N[C@@H](Cc1c[nH]cn1)C(N)=O (H-AEPALLNWSFFFNPGLH-NH2) = 3

Item CSCC[C@H](NC(=O)[C@H](C)NC(=O)[C@H](CC(C)C)NC(=O)[C@@H]1CCCN1C(=O)[C@@H]1CCCN1C(=O)[C@H](CC(C)C)NC(=O)[C@H](CO)NC(=O)[C@H](Cc1ccc(O)cc1)NC(=O)[C@H](CC(C)C)NC(=O)[C@H](CO)NC(=O)[C@H](Cc1c[nH]c2ccccc12)NC(=O)[C@H](CC(C)C)NC(=O)[C@H](CC(=O)O)NC(=O)[C@H](CC(C)C)NC(=O)[C@@H]1CCCN1C(=O)[C@H](CCC(=O)O)NC(=O)[C@H](C)N)C(N)=O (H-AEPLDLWSLYSLPPLAM-NH2) has what recorded Kd?
5
